experimental-target: HERG (human, UniProt Q12809 1-1159)
Sequence (Q12809 whole entry): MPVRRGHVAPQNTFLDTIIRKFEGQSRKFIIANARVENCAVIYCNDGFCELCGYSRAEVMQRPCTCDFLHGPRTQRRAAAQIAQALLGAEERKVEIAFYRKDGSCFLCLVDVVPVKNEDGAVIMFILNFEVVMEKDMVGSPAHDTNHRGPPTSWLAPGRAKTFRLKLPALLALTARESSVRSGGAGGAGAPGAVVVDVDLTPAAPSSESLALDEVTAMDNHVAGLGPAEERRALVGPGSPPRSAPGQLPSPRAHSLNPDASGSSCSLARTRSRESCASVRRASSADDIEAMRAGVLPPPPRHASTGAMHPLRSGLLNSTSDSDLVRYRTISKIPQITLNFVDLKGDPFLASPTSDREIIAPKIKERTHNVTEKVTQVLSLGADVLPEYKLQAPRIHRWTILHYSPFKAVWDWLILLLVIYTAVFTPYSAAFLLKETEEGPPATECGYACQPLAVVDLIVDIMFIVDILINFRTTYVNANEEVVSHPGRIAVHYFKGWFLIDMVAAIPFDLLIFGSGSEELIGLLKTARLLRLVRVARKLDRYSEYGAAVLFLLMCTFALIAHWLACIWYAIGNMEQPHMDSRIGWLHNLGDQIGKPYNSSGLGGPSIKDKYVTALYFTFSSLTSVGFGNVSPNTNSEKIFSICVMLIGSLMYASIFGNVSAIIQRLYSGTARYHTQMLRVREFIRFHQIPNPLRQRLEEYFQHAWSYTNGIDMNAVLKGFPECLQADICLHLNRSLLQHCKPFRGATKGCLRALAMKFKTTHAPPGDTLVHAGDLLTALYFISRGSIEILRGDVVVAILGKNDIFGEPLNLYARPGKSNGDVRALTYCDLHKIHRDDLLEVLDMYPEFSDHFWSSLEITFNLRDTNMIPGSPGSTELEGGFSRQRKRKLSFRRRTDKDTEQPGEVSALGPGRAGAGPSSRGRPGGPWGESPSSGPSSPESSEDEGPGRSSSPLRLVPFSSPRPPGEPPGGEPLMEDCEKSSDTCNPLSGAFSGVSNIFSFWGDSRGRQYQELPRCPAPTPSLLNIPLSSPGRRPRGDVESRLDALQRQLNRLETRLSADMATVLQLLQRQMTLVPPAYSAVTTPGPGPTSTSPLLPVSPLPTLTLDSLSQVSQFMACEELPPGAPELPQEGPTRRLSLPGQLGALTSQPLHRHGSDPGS
measurement-description: cell-based or functional assay
metric: activation V1/2 (mV)
Provide the reading as a plain figure in mV.

binder: M54T-hMiRP1 (other) MSTLSNFTQTLEDVFRRIFITYMDNWRQNTTAEQEALQAKVDAENFYYVILYLTVMIGMFSFIIVAILVSTVKSKRREHSNDPYHQYIVEDWQEKYKSQILNLEESKATIHENIGAAGFKMSP
metric: activation V1/2
experimental-result: -21
//
binder: Q9E-hMiRP1 (other) MSTLSNFTETLEDVFRRIFITYMDNWRQNTTAEQEALQAKVDAENFYYVILYLMVMIGMFSFIIVAILVSTVKSKRREHSNDPYHQYIVEDWQEKYKSQILNLEESKATIHENIGAAGFKMSP
metric: activation V1/2
experimental-result: -12
//
binder: wild type human MiRP1 (other) MSTLSNFTQTLEDVFRRIFITYMDNWRQNTTAEQEALQAKVDAENFYYVILYLMVMIGMFSFIIVAILVSTVKSKRREHSNDPYHQYIVEDWQEKYKSQILNLEESKATIHENIGAAGFKMSP
metric: activation V1/2
experimental-result: -21

Query :: Reported activation V1/2, binder T8A-hMiRP1 (other) MSTLSNFAQTLEDVFRRIFITYMDNWRQNTTAEQEALQAKVDAENFYYVILYLMVMIGMFSFIIVAILVSTVKSKRREHSNDPYHQYIVEDWQEKYKSQILNLEESKATIHENIGAAGFKMSP : ____
Result :: -29
